# experimentalDetails: Cytotoxicity, neutral red uptake assay, MRC-5
# Type: cell-based
# assayContext: human, MRC-5 lung fibroblasts, confluent monolayer, confluent MRC-5, 24 h, read-out: IC50 ± SD, cytotoxicity MRC-5
Rule: IC50 at 24 h below 300 µM gives 1. Equal to or above 300 µM gives 0.

The examples below pair each entry with its known result.
COC(=O)[C@@]1(C)CCC[C@@]2(C)C1CC[C@H](C)[C@@H]2CC[C@@H](C)CC(=O)OC1=C(CC=C(C)C)C(=O)C2=C(CCCC2)C1=O (some centres unmarked) [Compound 18] = 0
Cc1c(OCC(F)(F)F)ccnc1C[S+]([O-])c1nc2ccccc2[nH]1 (centres unmarked) [Lansoprazole, reference compound] = 0
CC1=C(CC[C@@H](C)CC(=O)O)[C@@]2(C)CCC[C@](C)(C(=O)O)C2CC1 (some centres unmarked) [Compound 5, Δ8(9) Junicedric acid] = 0
COC(=O)[C@@]1(C)CCC[C@@]2(C)C1CC[C@H](C)[C@@H]2CC[C@@H](C)CC(=O)OC1=C(CC=C(C)C)C(=O)c2ccccc2C1=O (some centres unmarked) [Compound 14] = 0

Threshold test, IC50 at 24 h < 300 µM: CC(C)CCC1=C(O)C(=O)c2ccccc2C1=O [Compound 2, Dihydroprenyl lapachol]
0

Threshold test, IC50 at 24 h < 300 µM: CC(C)=CCC1=C(OC(=O)C[C@H](C)CCC2=C(C)CCC3[C@@](C)(C(=O)O)CCC[C@]23C)C(=O)c2ccccc2C1=O (some centres unmarked) [Compound 19, Lapachoyl Δ8(9) junicedrate]
1

Threshold test, IC50 at 24 h < 300 µM: CC(C)=CCC1=C(O)C(=O)c2ccccc2C1=O [Compound 1, Lapachol]
0

Threshold test, IC50 at 24 h < 300 µM: C=C1CCC2[C@](C)(CCC[C@]2(C)C(=O)O)[C@H]1CC[C@@H](C)CC(=O)OC1=C(CCC(C)C)C(=O)C2=C(CCCC2)C1=O (some centres unmarked) [Compound 11]
1
